# -log IC50, PDE4 annotations
target: PDE4; experiment: Inhibition of PDE isoenzymes: PDE4 (cAMP-specific), cytosol of human polymorphonuclear leukocytes; type: biochemical; conditions: PDE4, cytosol of human PMNL, cAMP as substrate, motapizone (1 μM) present
Counter-ions that a name gives are not always drawn.
Reply with the value as a number alone.

Some solved entries appear below for comparison.
[
  {
    "Compound": "CCCCN(CCCC)C(=O)c1ccc(C2=N[C@H]3CCN(C)C[C@H]3c3cc(OCC)c(OCC)cc32)cc1.Cl (single isomer, unassigned)",
    "Attribute measured": "-log IC50, PDE4",
    "Readout number": 7.94
  },
  {
    "Compound": "CCOc1cc2c(cc1OCC)[C@@H]1CN(C)CC[C@@H]1N=C2c1ccc(C(=O)N2CCCCCC2)cc1.Cl (single isomer, unassigned)",
    "Attribute measured": "-log IC50, PDE4",
    "Readout number": 7.87
  }
]

Inquiry: Return reported -log IC50, PDE4. Input compound: COc1cc2c(cc1OC)[C@H]1CN(C)CC[C@H]1N=C2c1ccc(C(=O)OC(C)C)cc1 (single isomer, unassigned) [Compound 3, hydrochloride]
Reply text: 6.45

Inquiry: For the compound CCOc1cc2c(cc1OCC)[C@@H]1CN(C)CC[C@@H]1N=C2c1ccc(C(=O)OC(C)C)cc1.Cl (single isomer, unassigned) , give its measured -log IC50, PDE4 value.
Reply text: 7.75

Inquiry: Answer with the recorded -log IC50, PDE4 of CCOc1cc2c(cc1OC)C(c1ccc(C(=O)N3CCCCCC3)cc1)=N[C@H]1CCN(C)C[C@@H]21 (single isomer, unassigned) only.
Reply text: 8.51

Provenance of the data: patent US6008215A
